experiment-notes: Particle size and PDI by dynamic light scattering (Malvern Zetasizer)
Assay type: physicochemical
test-settings: lipid/no neutral lipid/CHOL/AVANTI 880150P 50/0/46/4, N/P 3.43
Here the recorded Final size (nm) is given for each entry.
Please state the figure in nm; there is no need to write the unit.

In the examples that follow, each entry is paired with its recorded Final size (nm).
compound: CCCCC/C=C\C/C=C\CCCCCCCCOCC(CN1CCC[C@H]1C)OCCOCCO[C@H]1CC[C@@]2(C)C(=CCC3C2CC[C@@]2(C)C3CC[C@@H]2[C@H](C)CCCC(C)C)C1 (stereo partly drawn)
quantity-name: Final size (nm)
measure-unit: nm
value-measured: 237

compound: CCCCC/C=C\C/C=C\CCCCCCCCOCC(CN1CCCCC1)OC(=O)CCC(=O)O[C@H]1CC[C@@]2(C)C(=CCC3C2CC[C@@]2(C)C3CC[C@@H]2[C@H](C)CCCC(C)C)C1 (stereo partly drawn)
quantity-name: Final size (nm)
measure-unit: nm
value-measured: 76

compound: CCCCC/C=C\C/C=C\CCCCCCCCOCC(CN1CCC(N2CCOCC2)C1)OCCOCCO[C@H]1CC[C@@]2(C)C(=CC[C@H]3[C@@H]4CC[C@H]([C@H](C)CCCC(C)C)[C@@]4(C)CC[C@@H]32)C1 (stereo partly drawn)
quantity-name: Final size (nm)
measure-unit: nm
value-measured: 115

compound: CCCCC/C=C\C/C=C\CCCCCCCCOCC(Cn1ccnc1)OCCOCCO[C@H]1CC[C@@]2(C)C(=CCC3C2CC[C@@]2(C)C3CC[C@@H]2[C@H](C)CCCC(C)C)C1 (stereo partly drawn)
quantity-name: Final size (nm)
measure-unit: nm
value-measured: 142.9

compound: CCCCC/C=C\C/C=C\CCCCCCCCOCC(CN1CC2CCCN(C(=O)OC(C)(C)C)C2C1)OCCOCCO[C@H]1CC[C@@]2(C)C(=CCC3C2CC[C@@]2(C)C3CC[C@@H]2[C@H](C)CCCC(C)C)C1 (stereo partly drawn)
quantity-name: Final size (nm)
measure-unit: nm
value-measured: 93

**Query** Value lookup for Final size (nm); key = CCCCC/C=C\C/C=C\CCCCCCCCOCC(CN1CCCC2CCCCC21)OCCOCCO[C@H]1CC[C@@]2(C)C(=CCC3C2CC[C@@]2(C)C3CC[C@@H]2[C@H](C)CCCC(C)C)C1 (stereo partly drawn)
**Result** 80

**Query** Lookup CCCCC/C=C\C/C=C\CCCCCCCCOCC(CN1C[C@@H](C)O[C@@H](C)C1)OCCOCCO[C@H]1CC[C@@]2(C)C(=CC[C@H]3[C@@H]4CC[C@H]([C@H](C)CCCC(C)C)[C@@]4(C)CC[C@@H]32)C1 (stereo partly drawn)
**Result** 95

**Query** Lookup CCCCC/C=C\C/C=C\CCCCCCCCOCC(CN1CCC(OC)C1)OCCCCO[C@H]1CC[C@@]2(C)C(=CCC3C2CC[C@@]2(C)C3CC[C@@H]2[C@H](C)CCCC(C)C)C1 (stereo partly drawn)
**Result** 79

**Query** Lookup CCCCC/C=C\C/C=C\CCCCCCCCOCC(CN1CCC(C)CC1)OCCOCCO[C@H]1CC[C@@]2(C)C(=CC[C@H]3[C@@H]4CC[C@H]([C@H](C)CCCC(C)C)[C@@]4(C)CC[C@@H]32)C1 (stereo partly drawn)
**Result** 84
